- target-or-system: ROCK2 (human)
Reported IC50 values follow for various molecules

In the examples that follow, each entry is paired with its recorded IC50.
molecule: NC(CNS(=O)(=O)c1cccc(-c2ccccc2)c1)c1ccc(C(=O)Nc2ccncc2)cc1 (stereo not drawn)
IC50: 500 to 5000 nM
//
molecule: NC(CC(=O)N1CCCC1c1ccc(Cl)c(Cl)c1)c1ccc(C(=O)Nc2ccncc2)cc1 (stereo not drawn)
IC50: < 500 nM
//
molecule: NC(CC(=O)N1CCOCC1c1ccc(F)cc1)c1ccc(C(=O)Nc2ccncc2)cc1 (stereo not drawn)
IC50: < 500 nM
//
molecule: CN(CC(N)c1ccc(C(=O)Nc2ccncc2)cc1)S(=O)(=O)c1ccccc1F (stereo not drawn)
IC50: 500 to 5000 nM
//
molecule: NC(CC(=O)N1CCSC1)c1ccc(C(=O)Nc2ccncc2)cc1 (stereo not drawn)
IC50: < 500 nM

// field: IC50; key: CC1CC(C)CN(C(=O)CC(N)c2ccc(C(=O)Nc3ccncc3)cc2)C1 (stereo not drawn) ; value = < 500 nM

Entry NC(CC(=O)N1CCOCC1c1ccc(Cl)cc1)c1ccc(C(=O)Nc2ccncc2)cc1 (stereo not drawn) , IC50 reported as < 500 nM

The recorded IC50 for entry NC(c1ccc(C(=O)Nc2ccncc2)cc1)C1CCCN1S(=O)(=O)c1cccc(F)c1 (stereo not drawn) equals 500 to 5000 nM

---

Recorded IC50 for the following molecules
- target-or-system: ROCK2 (human)

Given the molecule NC(C(=O)NCCc1ccccc1)c1ccc(C(=O)Nc2ccncc2)cc1 (stereo unspecified) and test system ROCK2 (human), the measured IC50 is < 500 nM

Record CS(=O)(=O)NCCNC(=O)C(N)c1ccc(C(=O)Nc2ccncc2)cc1 (stereo unspecified) has ROCK2 (human) IC50 equal to 500 to 5000 nM

ROCK2 (human) data for NC(CC(=O)N1CCN(CCO)CC1)c1ccc(C(=O)Nc2ccncc2)cc1 (stereo unspecified) ; its IC50: < 500 nM

Form field, IC50 with ROCK2 (human), item N[C@@H](C(=O)NCc1ccccc1)c1ccc(C(=O)Nc2ccncc2)cc1 : 500 to 5000 nM

# lookup: NC(C(=O)NCc1ccccc1Cl)c1ccc(C(=O)Nc2ccncc2)cc1 (stereo unspecified) on ROCK2 (human), IC50 = < 500 nM

IC50 for ROCK2 (human) with input CS(=O)(=O)NCC(N)c1ccc(C(=O)Nc2ccncc2)cc1 (stereo unspecified) equals < 500 nM

Entry NC(C(=O)NCC1CCCO1)c1ccc(C(=O)Nc2ccncc2)cc1 (stereo unspecified) ; assay system ROCK2 (human); IC50 recorded at 500 to 5000 nM

Item NC(C(=O)NCCn1cccn1)c1ccc(C(=O)Nc2ccncc2)cc1 (stereo unspecified) was tested on ROCK2 (human); the reported IC50 is 500 to 5000 nM

Reported IC50 (ROCK2 (human)) for entry COc1ccc(CN2CCN(C(=O)C(N)c3ccc(C(=O)Nc4ccncc4)cc3)CC2)cc1 (stereo unspecified) is 500 to 5000 nM

Reading of IC50 for CCNC(=O)C(N)c1ccc(C(=O)Nc2ccncc2)cc1 (stereo unspecified) with ROCK2 (human): 500 to 5000 nM

---

- target-or-system: UniProtKB O75116
- Sequence (O75116 whole entry, looked up): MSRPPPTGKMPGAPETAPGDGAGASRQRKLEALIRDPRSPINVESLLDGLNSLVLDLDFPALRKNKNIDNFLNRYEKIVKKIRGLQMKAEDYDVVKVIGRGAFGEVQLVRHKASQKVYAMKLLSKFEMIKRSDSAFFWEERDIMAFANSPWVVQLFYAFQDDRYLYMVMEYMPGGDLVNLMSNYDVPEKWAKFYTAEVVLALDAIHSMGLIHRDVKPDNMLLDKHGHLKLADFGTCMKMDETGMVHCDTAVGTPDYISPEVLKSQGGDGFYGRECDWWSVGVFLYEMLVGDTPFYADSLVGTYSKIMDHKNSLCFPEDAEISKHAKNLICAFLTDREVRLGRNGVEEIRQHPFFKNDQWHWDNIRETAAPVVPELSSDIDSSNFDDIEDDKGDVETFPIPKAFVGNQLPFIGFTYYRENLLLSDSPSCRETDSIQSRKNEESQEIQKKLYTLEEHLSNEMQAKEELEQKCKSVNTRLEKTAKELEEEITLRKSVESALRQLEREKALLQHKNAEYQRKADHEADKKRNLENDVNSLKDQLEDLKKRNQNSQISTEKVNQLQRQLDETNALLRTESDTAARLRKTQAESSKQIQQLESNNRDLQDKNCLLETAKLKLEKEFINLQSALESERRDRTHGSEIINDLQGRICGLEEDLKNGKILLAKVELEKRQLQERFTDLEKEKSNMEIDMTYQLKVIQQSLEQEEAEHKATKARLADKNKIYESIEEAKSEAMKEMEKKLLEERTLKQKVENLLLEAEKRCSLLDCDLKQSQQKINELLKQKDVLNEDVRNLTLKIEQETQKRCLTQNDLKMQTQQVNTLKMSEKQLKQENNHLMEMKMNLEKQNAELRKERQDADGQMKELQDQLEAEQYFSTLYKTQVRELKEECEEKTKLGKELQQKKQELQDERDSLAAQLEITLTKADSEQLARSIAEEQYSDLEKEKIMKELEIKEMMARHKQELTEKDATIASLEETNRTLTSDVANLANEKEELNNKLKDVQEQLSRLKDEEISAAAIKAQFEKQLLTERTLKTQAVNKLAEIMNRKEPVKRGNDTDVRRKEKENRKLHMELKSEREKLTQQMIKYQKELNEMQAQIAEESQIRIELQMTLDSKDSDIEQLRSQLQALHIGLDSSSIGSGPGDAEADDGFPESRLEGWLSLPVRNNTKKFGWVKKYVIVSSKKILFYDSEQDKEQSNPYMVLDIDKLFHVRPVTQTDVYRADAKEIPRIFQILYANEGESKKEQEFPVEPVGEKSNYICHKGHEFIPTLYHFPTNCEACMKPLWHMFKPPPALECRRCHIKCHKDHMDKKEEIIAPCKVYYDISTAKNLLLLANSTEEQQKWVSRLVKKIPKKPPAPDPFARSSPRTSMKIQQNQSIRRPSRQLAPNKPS
- test-details: Inhibition of ROCK2 Kinase Activity
pIC50: −log10 of the molar value.
Property: pIC50; scope: individual molecules

Here is how some molecules turned out for pIC50.
molecule: NC(CNS(=O)(=O)c1ccccc1)c1ccc(C(=O)Nc2ccncc2)cc1 (stereo not given)
pIC50: > 6.30
//
molecule: Cc1nn(C)c(Cl)c1S(=O)(=O)NCC(N)c1ccc(C(=O)Nc2ccncc2)cc1 (stereo not given)
pIC50: 5.30 to 6.30
//
molecule: NC(C(=O)N1CCOCC1)c1ccc(C(=O)Nc2ccncc2)cc1 (stereo not given)
pIC50: > 6.30
//
molecule: NC(C(=O)N1CCN(c2ccccc2)CC1)c1ccc(C(=O)Nc2ccncc2)cc1 (stereo not given)
pIC50: 5.30 to 6.30
//
molecule: NC(CC(=O)N1CCCCC1)c1ccc(C(=O)Nc2ccncc2)cc1 (stereo not given)
pIC50: > 6.30
//
molecule: NC(CC(=O)N1CCCC1c1ccc(F)cc1)c1ccc(C(=O)Nc2ccncc2)cc1 (stereo not given)
pIC50: > 6.30
//
molecule: CC1CCN(C(=O)C(N)c2ccc(C(=O)Nc3ccncc3)cc2)CC1 (stereo not given)
pIC50: > 6.30
//
molecule: NC(CC(=O)N1CCCC1c1cc(F)ccc1F)c1ccc(C(=O)Nc2ccncc2)cc1 (stereo not given)
pIC50: > 6.30
//
molecule: NC(C(=O)N1CCc2ccccc2C1)c1ccc(C(=O)Nc2ccncc2)cc1 (stereo not given)
pIC50: > 6.30

Lab note: CC(NC(=O)C(N)c1ccc(C(=O)Nc2ccncc2)cc1)c1ccccc1 (stereo not given) gave pIC50 of > 6.30
